biological target: aromatase (CYP19) (Homo sapiens); assay: Aromatase assay; assay type: biochemical; conditions: read-out: Aromatase % inhib., 50 μM; vs vehicle-treated controls
Sequence (P11511 whole entry): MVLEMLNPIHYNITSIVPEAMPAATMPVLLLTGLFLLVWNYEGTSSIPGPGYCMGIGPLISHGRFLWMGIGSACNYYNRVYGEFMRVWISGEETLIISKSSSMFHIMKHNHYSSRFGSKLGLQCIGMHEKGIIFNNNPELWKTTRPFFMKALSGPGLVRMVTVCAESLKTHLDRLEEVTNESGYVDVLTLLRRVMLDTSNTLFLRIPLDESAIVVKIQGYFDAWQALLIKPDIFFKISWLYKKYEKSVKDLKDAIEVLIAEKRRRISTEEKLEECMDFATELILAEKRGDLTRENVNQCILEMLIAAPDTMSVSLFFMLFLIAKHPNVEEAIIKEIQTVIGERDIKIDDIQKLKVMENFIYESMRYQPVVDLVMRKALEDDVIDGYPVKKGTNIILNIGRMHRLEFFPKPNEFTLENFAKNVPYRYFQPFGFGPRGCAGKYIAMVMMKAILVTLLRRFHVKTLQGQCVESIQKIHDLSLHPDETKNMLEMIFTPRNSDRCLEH
A collection of molecules and their measured inhibition at 50 µM
Give the value in % but do not write % after it.

CC(C)COC(=O)N1Cc2[nH]c3ccccc3c2C[C@H]1C(=O)O [Compound 7b] :: 40

// lookup inhibition at 50 µM for COC(=O)[C@@H]1Cc2c([nH]c3ccccc23)CN1C(=O)OCC(C)C [Compound 3b]
41.5

###

inhibition at 50 µM reference
target: aromatase (CYP19) (Homo sapiens); test: Aromatase assay; assay type: biochemical; details: read-out: Aromatase % inhib., 50 μM; vs vehicle-treated controls

Examples from the recorded data:
C=CCOC(=O)N1Cc2[nH]c3ccccc3c2C[C@H]1C(=O)OC :: > 50%
O=C(O)[C@@H]1Cc2c([nH]c3ccccc23)CN1Cc1ccc(O)cc1 [Compound 12a, (S)-Callophycin A] :: > 50%

Entry COC(=O)[C@@H]1Cc2c([nH]c3ccccc23)CN1C(=O)NC(C)C : reported inhibition at 50 µM = ?
> 50%

Origin of measurements: paper PMC3207488
